- TEST TARGET: human ORL-1 receptor (opioid receptor like 1) (human, UniProt P41146 1-370)
- Sequence (P41146 whole entry): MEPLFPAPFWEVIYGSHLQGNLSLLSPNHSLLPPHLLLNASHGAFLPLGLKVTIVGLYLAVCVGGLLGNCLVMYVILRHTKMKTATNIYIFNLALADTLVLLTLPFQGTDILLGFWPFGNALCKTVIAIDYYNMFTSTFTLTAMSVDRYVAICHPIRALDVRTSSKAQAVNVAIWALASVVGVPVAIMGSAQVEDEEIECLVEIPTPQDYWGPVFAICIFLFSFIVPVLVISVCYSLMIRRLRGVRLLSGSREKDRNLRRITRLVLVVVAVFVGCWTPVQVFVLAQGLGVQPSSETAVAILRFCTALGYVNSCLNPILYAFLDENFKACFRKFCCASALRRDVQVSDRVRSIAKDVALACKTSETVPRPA
- ASSAY: cell-based or functional assay
Square brackets hold non-standard residues; d marks the D form. Ahx = NCCCCCC(=O)O
% Stimulation of [35S]GTPγS binding values by entry
ASSAY METRIC: % Stimulation of [35S]GTPγS binding (%)

binder="Ac-RYYRW[Ahx]-NH2 (SMILES CC(=O)N[C@@H](CCCNC(=N)N)C(=O)N[C@@H](Cc1ccc(O)cc1)C(=O)N[C@@H](Cc1ccc(O)cc1)C(=O)N[C@@H](CCCNC(=N)N)C(=O)N[C@@H](Cc1c[nH]c2ccccc12)C(=O)NCCCCCC(N)=O, also called Ac-Arg-Tyr-Tyr-Arg-Trp-ε-aminocaproyl-NH2) [VII-57-C]" assay_metric="% Stimulation of [35S]GTPγS binding" recorded_result=37.4
binder="Ac-R[Tyr(4-Me)]YRWR-NH2 (also called Ac-Arg-Tyr(4-Me)-Tyr-Arg-Trp-Arg-NH2) [VII-35-C]" assay_metric="% Stimulation of [35S]GTPγS binding" recorded_result=52.1
